Where these numbers come from: the supplement of paper PMC10646978

System: RAW-Dual (murine macrophage reporter line)
Test: IRF reporter (Lucia luciferase) activity fold change vs agonist alone; higher = enhanced IRF activity
Settings: modulator concentration 10 µM; agonist: LPS 0.1 ug/mL
Hi there, I'd appreciate the recorded IRF reporter for every entry that follows.
Answers are plain numbers.

Example results:
| compound | IRF reporter |
| --- | --- |
| CC(NC(=O)COc1ccc(C=NNC(=O)c2ccccc2O)cc1)c1ccccc1 (stereo unspecified) | 1.63 |
| OCC(O)CN1CCN(c2ccccc2)CC1 (stereo unspecified) | 0.991 |
| CC(=O)Nc1nc(C2CC2)cc(-c2ccco2)c1C#N | 1.16 |
| COc1ccc(CNC(=O)c2cnc3n(c2=O)CCS3)cc1 | 1.1 |
| COC(=O)c1cc(NC(=O)C2CCCC2)cc(C(=O)OC)c1 | 1.13 |
| CCOC(=O)C1=C(C)NC2=C(C(=O)CC(C)(C)C2)C1c1ccccc1Br (stereo unspecified) | 1.32 |
| COc1ccc(CNc2nc(N3CCC[C@H]3CO)ncc2C(=O)NCc2ncccn2)cc1Cl | 1.39 |
| O=C(O)CCC(=O)O.O=C(O[C@H]1CN2CCC1CC2)N1CCc2ccccc2[C@@H]1c1ccccc1 | 1.05 |

Please state IRF reporter for every compound in the list that follows.
1. CCOC(=O)C1=C(C)NC(C)=C(C(=O)OC)C1c1ccc(Cl)cc1 (stereo unspecified)
2. CCc1c(C)c2ccc(OCC(C)=O)c(C)c2oc1=O
3. CCOc1ccc(Nc2nc(Nc3ccc(OCC)cc3)nc(N3CCOCC3)n2)cc1

1: 1.01; 2: 1.27; 3: 4.42

* * *

Test system: RAW-Dual (murine macrophage reporter line)
Assay: NF-kB reporter (SEAP) activity fold change vs agonist alone; higher = enhanced NF-kB activity
Settings: modulator concentration 10 µM; agonist: CpG ODN 1826 0.5 ug/mL
Kindly supply the reported NF-kB reporter values for the records listed here.

Items follow; give NF-kB reporter for each.
1. O=C(OC(=Cc1nccn1Cc1ccc(Cl)cc1)c1ccccc1)c1ccccc1
2. O=C(NC(=S)NNc1ccccc1)c1cc2ccccc2oc1=O
3. CN(C)c1nc(CNS(C)(=O)=O)nc(N2CCOCC2)n1
4. O=c1oc2cc(O)ccc2s1
5. Cl.Nc1c2c(nc3ccccc13)CCCC2
6. CN(C)CCCC1(c2ccc(F)cc2)OCc2cc(C#N)ccc21.O=C(O)C(=O)O (centres undefined)
7. CN(Cc1cnc2nc(N)nc(N)c2n1)c1ccc(C(=O)N[C@@H](CCC(=O)O)C(=O)O)cc1

1: 0.323; 2: 1.08; 3: 0.908; 4: 1.11; 5: 0.172; 6: 1.13; 7: 0.668

Kindly give each listed record's NF-kB reporter.
1. COC(=O)C1=C(C)NC(C)=C(C(=O)O[C@@H]2CCCN(Cc3ccccc3)C2)[C@@H]1c1cccc([N+](=O)[O-])c1 [Prestw-1766]
2. NC(=O)c1ncn([C@@H]2O[C@H](CO)[C@@H](O)[C@H]2O)c1O

0.317
0.723

Please state, for each entry, its recorded NF-kB reporter.
1. O=C(Nc1ccc(S(=O)(=O)Nc2nccs2)cc1)c1c(F)cccc1F
2. COc1ccc([C@@H]2Sc3ccccc3N(CCN(C)C)C(=O)[C@@H]2OC(C)=O)cc1.Cl
3. O=C(NNC(=O)c1sc2cc(F)ccc2c1Cl)Nc1ccc(Cl)cc1
4. CCOC(=O)C1=C(C)NC(C)=C(C(=O)OCC)C1c1ccco1
5. COc1ccc(S(=O)(=O)NCc2ccnc(N3CCOCC3)n2)cc1Cl
6. C1=C(c2ccccc2)Nc2nnnn2C1c1ccccc1 (centres undefined)
7. CCOC(=O)C1=C[C@]2(CC)CCCN3CCc4c(n1c1ccccc41)[C@@H]32

0.984
0.958
1.02
1.03
1.02
0.951
0.825

State recorded NF-kB reporter for all listed compounds.
1. NCCNc1ccc(NCCN)c2c1C(=O)c1ccncc1C2=O.O=C(O)/C=C\C(=O)O.O=C(O)/C=C\C(=O)O
2. CCSc1nnc(NC(=O)Cc2ccc([N+](=O)[O-])cc2)s1

1: 0.917; 2: 1.04
